- STUDY_TARGET: Tissue-type plasminogen activator (Homo sapiens, UniProt P00750)
- Sequence (P00750 whole entry): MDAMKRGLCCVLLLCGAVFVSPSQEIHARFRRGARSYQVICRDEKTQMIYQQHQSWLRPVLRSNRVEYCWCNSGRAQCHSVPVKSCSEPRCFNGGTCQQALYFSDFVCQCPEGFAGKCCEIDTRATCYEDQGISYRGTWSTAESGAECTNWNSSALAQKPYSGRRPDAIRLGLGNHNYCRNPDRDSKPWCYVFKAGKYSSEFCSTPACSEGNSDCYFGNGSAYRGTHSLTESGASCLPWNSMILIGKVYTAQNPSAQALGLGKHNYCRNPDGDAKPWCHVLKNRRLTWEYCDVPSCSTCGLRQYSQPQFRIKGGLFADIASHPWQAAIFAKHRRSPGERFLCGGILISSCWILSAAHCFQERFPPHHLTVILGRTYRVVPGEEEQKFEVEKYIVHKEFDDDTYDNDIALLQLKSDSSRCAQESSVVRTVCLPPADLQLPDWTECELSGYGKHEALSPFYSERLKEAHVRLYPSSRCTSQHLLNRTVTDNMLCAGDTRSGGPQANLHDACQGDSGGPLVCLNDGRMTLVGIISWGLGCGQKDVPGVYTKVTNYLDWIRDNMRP
- METHOD_NOTES: Compound was evaluated for the inhibitory activity against t-PA
pKi: −log10 of the molar value.
TEST_READOUT: pKi

input: Any idea what pKi came out for O=C(CN1CCN(S(=O)(=O)c2cc3ccc(Cl)cc3s2)CC1=O)NCCc1cnc[nH]1 on Tissue-type plasminogen activator (Homo sapiens, UniProt P00750)?
output: < 5.06

====

- STUDY_TARGET: Coagulation factor X (Homo sapiens)
- Sequence (P00742 41-179 limits assumed): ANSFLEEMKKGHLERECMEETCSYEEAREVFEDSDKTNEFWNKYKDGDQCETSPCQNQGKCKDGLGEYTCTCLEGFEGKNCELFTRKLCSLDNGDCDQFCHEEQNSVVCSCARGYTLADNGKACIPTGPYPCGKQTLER
- Sequence (P00742 235-488 limits assumed): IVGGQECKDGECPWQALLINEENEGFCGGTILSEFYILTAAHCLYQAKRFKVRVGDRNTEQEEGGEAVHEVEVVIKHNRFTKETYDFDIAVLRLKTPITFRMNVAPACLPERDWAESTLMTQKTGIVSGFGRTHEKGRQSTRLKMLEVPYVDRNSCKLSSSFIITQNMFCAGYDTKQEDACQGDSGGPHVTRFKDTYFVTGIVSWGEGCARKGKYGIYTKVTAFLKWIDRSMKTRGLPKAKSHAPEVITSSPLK
Mark each entry yes if its Ki sits below 300 nM, and no for all others.

input: Strictly below 300 nM in Ki? Cn1cnc(CCNC(=O)CN2CCN(S(=O)(=O)c3cc4ccc(Cl)cc4s3)CC2=O)c1
output: no

input: Strictly below 300 nM in Ki? Cc1ncsc1CCNC(=O)CN1CCN(S(=O)(=O)c2cc3ccc(Cl)cc3s2)CC1=O
output: yes

input: Strictly below 300 nM in Ki? O=C(CN1CCN(S(=O)(=O)c2cc3ccc(Cl)cc3s2)CC1=O)NCCc1cscn1
output: yes

input: Strictly below 300 nM in Ki? Nc1cc(CCNC(=O)CN2CCN(S(=O)(=O)c3cc4ccc(Cl)cc4s3)CC2=O)ccn1
output: yes

input: Strictly below 300 nM in Ki? Nc1nc(CCNC(=O)CN2CCN(S(=O)(=O)c3cc4ccc(Cl)cc4s3)CC2=O)cs1
output: no

input: Strictly below 300 nM in Ki? O=C(CN1CCN(S(=O)(=O)c2cc3ccc(Cl)cc3s2)CC1=O)Nc1ccncn1
output: yes

Next:
input: Strictly below 300 nM in Ki? Cn1cccc1CCNC(=O)CN1CCN(S(=O)(=O)c2cc3ccc(Cl)cc3s2)CC1=O
output: no

input: Strictly below 300 nM in Ki? O=C(CN1CCN(S(=O)(=O)c2cc3ccc(Cl)cc3s2)CC1=O)NCCc1c[nH]c(S)n1
output: no

input: Strictly below 300 nM in Ki? O=C(CN1CCN(S(=O)(=O)c2cc3ccc(Cl)cc3s2)CC1=O)NCCc1ccncc1
output: yes

====

- STUDY_TARGET: Plasminogen (Homo sapiens, UniProt P00747)
- Sequence (P00747 97-580 limits assumed): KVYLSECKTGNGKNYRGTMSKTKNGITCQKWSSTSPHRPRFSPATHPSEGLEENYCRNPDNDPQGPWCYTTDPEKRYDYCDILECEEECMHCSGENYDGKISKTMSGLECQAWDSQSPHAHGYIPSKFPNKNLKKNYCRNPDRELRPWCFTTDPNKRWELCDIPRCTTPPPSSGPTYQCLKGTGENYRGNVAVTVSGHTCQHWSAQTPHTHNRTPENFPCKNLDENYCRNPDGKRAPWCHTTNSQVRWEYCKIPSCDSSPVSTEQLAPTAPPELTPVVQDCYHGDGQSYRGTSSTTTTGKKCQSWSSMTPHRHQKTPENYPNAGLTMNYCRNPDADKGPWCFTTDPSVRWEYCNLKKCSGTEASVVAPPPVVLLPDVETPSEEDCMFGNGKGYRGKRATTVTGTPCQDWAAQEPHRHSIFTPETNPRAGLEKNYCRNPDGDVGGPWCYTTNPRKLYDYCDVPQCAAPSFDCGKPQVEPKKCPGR
- Sequence (P00747 581-810 limits assumed): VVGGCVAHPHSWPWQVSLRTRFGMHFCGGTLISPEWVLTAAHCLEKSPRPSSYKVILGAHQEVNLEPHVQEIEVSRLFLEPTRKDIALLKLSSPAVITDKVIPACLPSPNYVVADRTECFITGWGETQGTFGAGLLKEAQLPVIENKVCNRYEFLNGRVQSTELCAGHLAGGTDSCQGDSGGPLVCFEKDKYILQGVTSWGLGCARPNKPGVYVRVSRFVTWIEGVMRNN
TEST_READOUT: Ki

input: Any idea what Ki came out for O=C(CN1CCN(S(=O)(=O)c2cc3ccc(Cl)cc3s2)CC1=O)NCCc1cnc[nH]1 on Plasminogen (Homo sapiens, UniProt P00747)?
output: > 7.3 µM

====

- STUDY_TARGET: Serine protease 1 (Homo sapiens)
- Sequence (P07477 whole entry): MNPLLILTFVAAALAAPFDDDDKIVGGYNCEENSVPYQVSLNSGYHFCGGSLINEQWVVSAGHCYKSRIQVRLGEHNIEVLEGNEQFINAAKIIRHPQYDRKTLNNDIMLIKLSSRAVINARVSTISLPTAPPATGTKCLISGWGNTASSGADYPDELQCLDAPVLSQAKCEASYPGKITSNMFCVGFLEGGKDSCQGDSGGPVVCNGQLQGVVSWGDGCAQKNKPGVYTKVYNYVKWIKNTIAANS
- METHOD_NOTES: Compound was evaluated for the inhibitory activity against trypsin
pKi: −log10 of the molar value.
TEST_READOUT: pKi

input: Name the recorded pKi for O=C(CN1CCN(S(=O)(=O)c2cc3ccc(Cl)cc3s2)CC1=O)NCCc1cnc[nH]1 .
output: < 5.54

====

- STUDY_TARGET: Tissue-type plasminogen activator (Homo sapiens, UniProt P00750)
- METHOD_NOTES: Compound was evaluated for the inhibitory activity against t-PA.
TEST_READOUT: Ki

input: Name the recorded Ki for Cn1cncc1CCNC(=O)CN1CCN(S(=O)(=O)c2cc3ccc(Cl)cc3s2)CC1=O .
output: > 8.7 µM
